Tested on: L6-myotubes
run description: Glucose uptake (3H-2-deoxy-glucose) in differentiated L6-myotubes
Assay type: cell-based
condition info: agonist final concentration 1×10^−5, 3H-2-deoxy-glucose uptake, relative to isoproterenol
quantity kind: Biological example 1: glucose uptake activity compared to that of isoproterenol

{"input smiles": "CCC[C@@H](C)NC[C@H](O)c1cccc(F)c1", "recorded result": "++ (between 75 and 50%)"}
{"input smiles": "CCC[C@@H](C)NC[C@H](O)c1ccc(F)cc1", "recorded result": "++ (between 75 and 50%)"}
{"input smiles": "CCC[C@@H](C)NC[C@H](O)c1ccc(O)cc1", "recorded result": "++ (between 75 and 50%)"}
